# Test system: diabetic mice
# Method Notes: Blood glucose levels in diabetic mice
# Type: in vivo
# Particulars: conc. 0.3 mM, LOQ = 20 mM

>  <Compound>
Cc1nn(-c2ccccc2)c(Cl)c1C1Nc2ccccc2C(=O)N1c1ccc(O)cc1 (stereo not shown)

>  <Tgt>
diabetic mice

>  <Mean blood glucose level (mM)>
44

$$$$
>  <Compound>
Cc1nn(-c2ccccc2)c(Cl)c1C1Nc2ccccc2C(=O)N1c1ccccc1 (stereo not shown)

>  <Tgt>
diabetic mice

>  <Mean blood glucose level (mM)>
65

$$$$
>  <Compound>
Cc1ccc(N2C(=O)c3ccccc3NC2c2c(C)nn(-c3ccccc3)c2Cl)cc1 (stereo not shown)

>  <Tgt>
diabetic mice

>  <Mean blood glucose level (mM)>
44

$$$$
>  <Compound>
Cc1ccc(N2C(=O)c3ccccc3NC2c2c(C)nn(-c3ccccc3)c2Cl)c(C)c1 (stereo not shown)

>  <Tgt>
diabetic mice

>  <Mean blood glucose level (mM)>
29

$$$$
